experiment: LogP determination by HPLC (EEC directive 79/831 Annex V.A8, reversed-phase C18); type: physicochemical; settings: reversed-phase C18 HPLC column, mobile phase range not labelled
endpoint label: chromatographic logP

CC1C=Cc2c(c(C#N)cc(F)c2-n2nc(C(F)(F)F)n(C)c2=S)O1 (stereo not shown)    3.37

a: N#Cc1cc(F)c(N2C(=O)c3ccccc3C2=O)cc1O
b: C#CC(C)Oc1cc(N2C(=O)c3ccccc3C2=O)c(F)cc1C#N (stereo not shown)
Q. Of a and b , which carries the smaller reported chromatographic logP figure? Mark your answer with the label of the selected entry.
A. a

###

endpoint label: melting point (°C)

N#Cc1cc(F)c(N2C(=O)c3ccccc3C2=O)cc1O    247
CC1C=Cc2c(c(C#N)cc(F)c2-n2nc(C(F)(F)F)n(C)c2=S)O1 (stereo not shown)    144

A: C#CC(C)Oc1cc(N2C(=O)c3ccccc3C2=O)c(F)cc1C#N (stereo not shown)
B: COc1cc(N2C(=O)c3ccccc3C2=O)c(F)cc1C#N
Q. Field: entry with larger melting point (options A / B ). Refer to your chosen entry by its label in the reply.
A. B
